Biological target: Cytochrome P450 3A4 (Homo sapiens, UniProt P08684)
Sequence (P08684 whole entry): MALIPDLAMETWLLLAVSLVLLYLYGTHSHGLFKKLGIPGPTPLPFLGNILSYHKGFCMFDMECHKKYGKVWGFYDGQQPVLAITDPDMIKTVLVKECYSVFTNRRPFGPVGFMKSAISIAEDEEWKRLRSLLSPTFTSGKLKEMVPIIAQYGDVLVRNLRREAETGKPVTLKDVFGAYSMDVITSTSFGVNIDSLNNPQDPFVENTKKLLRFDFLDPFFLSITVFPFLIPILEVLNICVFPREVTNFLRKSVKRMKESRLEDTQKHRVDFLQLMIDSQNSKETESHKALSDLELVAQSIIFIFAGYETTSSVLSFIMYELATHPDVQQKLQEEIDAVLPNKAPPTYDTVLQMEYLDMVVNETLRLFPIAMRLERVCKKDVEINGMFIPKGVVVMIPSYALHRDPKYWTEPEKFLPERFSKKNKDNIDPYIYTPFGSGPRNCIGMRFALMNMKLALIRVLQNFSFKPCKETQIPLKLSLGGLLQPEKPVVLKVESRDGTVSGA
Experiment: Inhibition of CYP3A4
Assay type: ADME
value-type: INH (µM)

# count of solved cases: 3
*Q* Entry O=C1O[C@]2(CC[C@H](CNc3ncc(-c4ccccc4F)cn3)CC2)CN1c1ccccn1 needs its INH filled in; supply it.
*A* 5

*Q* Entry O=C1O[C@]2(CC[C@H](CNc3ccc(OC4CCC4)cn3)CC2)CN1c1ccccn1 needs its INH filled in; supply it.
*A* 3

*Q* Entry O=C1O[C@]2(CC[C@H](CNc3nc(-c4ccccn4)cs3)CC2)CN1c1ccccn1 needs its INH filled in; supply it.
*A* 3

[A] O=C1O[C@]2(CC[C@H](CNc3cnn(-c4ccccc4F)c3)CC2)CN1c1cccnc1
[B] O=C1O[C@]2(CC[C@H](CNc3cnn(-c4ccccc4F)c3)CC2)CN1c1ccnnc1
[C] O=C1O[C@]2(CC[C@H](CNc3cnn(-c4ccccc4F)c3)CC2)CN1c1cnccn1
[D] O=C1O[C@]2(CC[C@H](CNc3cnn(-c4ccccc4F)c3)CC2)CN1c1cncnc1
*Q* Hey, can you sort those molecules up there by INH, smallest first? Field: ranking. Enter the labels in the order requested.
*A* C, A, D, B

###

Experiment: Clearance in rat blood at 0.5 mg/kg, iv and 1 mg/kg, po
Format: ADME, organism-based
Settings: whole blood
value-type: clearance (mL/min/kg)

# count of solved cases: 2
*Q* Entry O=C1O[C@]2(CC[C@H](CNc3cnn(-c4ccccc4F)c3)CC2)CN1c1cccnn1 needs its clearance filled in; supply it.
*A* 13

*Q* Entry O=C1O[C@]2(CC[C@H](CNc3nc(-c4ccccn4)cs3)CC2)CN1c1ccccn1 needs its clearance filled in; supply it.
*A* 30

[A] FC(F)(F)c1ccc(Nc2nc(-c3ccccn3)cs2)cc1
[B] O=C1O[C@]2(CC[C@H](CNc3ccc(-c4cc(F)cc(F)c4)nn3)CC2)CN1c1cccnn1
[C] O=C1O[C@]2(CC[C@H](CNc3ccc(-c4ccccc4F)nn3)CC2)CN1c1cccnn1
[D] O=C1O[C@]2(CC[C@H](CNc3ccc(-c4ncccc4F)cn3)CC2)CN1c1cccnn1
*Q* Hey, quick one: sort these by clearance, largest value first please. Field: ranking. Enter the labels in the order requested.
*A* D, B, A, C
(D: 70 mL/min/kg, B: 41 mL/min/kg, A: 27 mL/min/kg, C: 18 mL/min/kg)

###

Test system: Liver microsomes
Test: Intrinsic clearance in human liver microsome
Type: ADME
value-type: CL

# count of solved cases: 3
*Q* Entry O=C1O[C@]2(CC[C@H](CNc3ccc(-c4ccccc4F)nn3)CC2)CN1c1cccnn1 needs its CL filled in; supply it.
*A* < 0.5 mL/min/g

*Q* Entry O=C1O[C@]2(CC[C@H](CNc3nc(-c4ccccn4)cs3)CC2)CN1c1ccccn1 needs its CL filled in; supply it.
*A* 4 mL/min/g

*Q* Entry O=C1O[C@]2(CC[C@H](CNc3cnn(-c4ccccc4F)c3)CC2)CN1c1cccnn1 needs its CL filled in; supply it.
*A* < 0.5 mL/min/g

Then this molecule:
*Q* Entry O=C1O[C@]2(CC[C@H](CNc3ccc(-c4cc(F)cc(F)c4)nn3)CC2)CN1c1cccnn1 needs its CL filled in; supply it.
*A* < 0.5 mL/min/g

###

Target: Cytochrome P450 2C19 (Homo sapiens, UniProt P33261)
Sequence (P33261 whole entry): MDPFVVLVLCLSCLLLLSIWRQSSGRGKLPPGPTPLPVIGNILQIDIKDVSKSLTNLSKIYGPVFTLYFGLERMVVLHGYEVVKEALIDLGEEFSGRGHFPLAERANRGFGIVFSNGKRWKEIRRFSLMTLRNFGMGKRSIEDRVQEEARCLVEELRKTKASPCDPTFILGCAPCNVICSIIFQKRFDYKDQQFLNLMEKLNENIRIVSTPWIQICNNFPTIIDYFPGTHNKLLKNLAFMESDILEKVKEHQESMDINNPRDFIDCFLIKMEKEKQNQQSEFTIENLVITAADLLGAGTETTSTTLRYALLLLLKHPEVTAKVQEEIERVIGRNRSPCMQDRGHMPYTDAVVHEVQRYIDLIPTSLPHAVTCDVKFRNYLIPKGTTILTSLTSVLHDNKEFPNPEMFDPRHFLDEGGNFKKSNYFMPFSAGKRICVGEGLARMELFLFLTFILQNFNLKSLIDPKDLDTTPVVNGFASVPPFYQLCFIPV
Test: Inhibition of CYP2C19
Type: ADME
value-type: INH (µM)

*Q* Entry O=C1O[C@]2(CC[C@H](CNc3ccc(-c4nccs4)cn3)CC2)CN1c1ccccn1 needs its INH filled in; supply it.
*A* 3

[P] O=C1O[C@]2(CC[C@H](CNc3ccn(-c4ccccc4F)n3)CC2)CN1c1ccccn1
[Q] O=C1O[C@]2(CC[C@H](CNc3ccc(-c4ccccc4F)nc3)CC2)CN1c1ccccn1
*Q* Input pair: P , Q . Output: entry with lower INH. Pick one; state its label.
*A* P
(P: 4 µM, Q: 9 µM)

###

Target: Cytochrome P450 2D6 (Homo sapiens, UniProt P10635)
Sequence (P10635 whole entry): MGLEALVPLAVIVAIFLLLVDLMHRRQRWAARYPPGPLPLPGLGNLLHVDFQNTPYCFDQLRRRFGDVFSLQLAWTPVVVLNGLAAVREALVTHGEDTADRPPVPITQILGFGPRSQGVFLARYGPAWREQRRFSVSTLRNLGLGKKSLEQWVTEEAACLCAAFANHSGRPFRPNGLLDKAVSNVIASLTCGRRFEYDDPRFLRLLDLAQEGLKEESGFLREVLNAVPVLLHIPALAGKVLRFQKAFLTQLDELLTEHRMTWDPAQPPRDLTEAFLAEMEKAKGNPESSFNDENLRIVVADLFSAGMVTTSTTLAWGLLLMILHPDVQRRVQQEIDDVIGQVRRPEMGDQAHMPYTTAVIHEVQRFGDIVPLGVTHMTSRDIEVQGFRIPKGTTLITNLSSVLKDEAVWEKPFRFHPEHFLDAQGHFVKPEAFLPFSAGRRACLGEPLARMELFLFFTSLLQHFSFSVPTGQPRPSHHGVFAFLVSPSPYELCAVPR
Assay: Inhibition of CYP2D6
Type: ADME
value-type: INH (µM)

# count of solved cases: 2
*Q* Entry O=C1O[C@]2(CC[C@H](CNc3ccc(OC4CCC4)cn3)CC2)CN1c1ccccn1 needs its INH filled in; supply it.
*A* 2

*Q* Entry O=C1O[C@]2(CC[C@H](CNc3ccc(-c4ccccc4F)nc3)CC2)CN1c1ccccn1 needs its INH filled in; supply it.
*A* 2

[a] O=C1O[C@]2(CC[C@H](CNc3ccc(-c4ccccc4F)nn3)CC2)CN1c1ccccn1
[b] O=C1O[C@]2(CC[C@H](CNc3ccc(-c4nccs4)cn3)CC2)CN1c1ccccn1
*Q* Input pair: a , b . Output: entry with lower INH. Pick one; state its label.
*A* b
(b: 1 µM, a: 2 µM)

###

Biological target: Cytochrome P450 2C9 (Homo sapiens)
Sequence (P11712 whole entry): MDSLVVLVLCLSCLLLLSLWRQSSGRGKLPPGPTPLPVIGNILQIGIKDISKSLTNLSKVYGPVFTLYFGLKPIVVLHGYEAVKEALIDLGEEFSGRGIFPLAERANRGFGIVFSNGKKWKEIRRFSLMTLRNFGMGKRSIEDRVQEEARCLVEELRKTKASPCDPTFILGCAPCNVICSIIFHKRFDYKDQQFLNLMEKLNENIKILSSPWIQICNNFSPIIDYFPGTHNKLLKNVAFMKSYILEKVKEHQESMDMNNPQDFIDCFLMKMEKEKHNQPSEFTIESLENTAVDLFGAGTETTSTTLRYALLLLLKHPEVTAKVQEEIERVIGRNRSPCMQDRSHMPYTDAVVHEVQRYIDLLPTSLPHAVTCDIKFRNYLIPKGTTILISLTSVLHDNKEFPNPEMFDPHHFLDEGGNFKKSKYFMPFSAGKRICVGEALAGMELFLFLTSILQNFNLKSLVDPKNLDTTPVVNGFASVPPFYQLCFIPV
Assay: Inhibition of CYP2C9
Assay type: ADME
value-type: INH (µM)

# count of solved cases: 3
*Q* Fill in INH for O=C1O[C@]2(CC[C@H](CNc3ccc(-c4nccs4)cn3)CC2)CN1c1ccccn1 tested with Cytochrome P450 2C9 (Homo sapiens).
*A* 0.3

*Q* Fill in INH for O=C1O[C@]2(CC[C@H](CNc3ccc(-c4ccccc4F)nn3)CC2)CN1c1ccccn1 tested with Cytochrome P450 2C9 (Homo sapiens).
*A* 1

*Q* Fill in INH for O=C1O[C@]2(CC[C@H](CNc3ccc(OC4CCC4)cn3)CC2)CN1c1ccccn1 tested with Cytochrome P450 2C9 (Homo sapiens).
*A* 2

[a] O=C1O[C@]2(CC[C@H](CNc3ccc(-c4ncccn4)cn3)CC2)CN1c1ccccn1
[b] O=C1O[C@]2(CC[C@H](CNc3ncc(-c4ccccc4F)cn3)CC2)CN1c1ccccn1
*Q* Exercise: compare a and b ; which one has the greater INH? Pick one; state its label.
*A* a

###

Molecular target: Cytochrome P450 3A4 (Homo sapiens)
Assay: Inhibition of CYP3A4
Assay type: ADME
value-type: INH

# count of solved cases: 3
*Q* Fill in INH for Cc1nnc(N2C[C@]3(CC[C@@H](CNc4cnn(-c5ccccc5F)c4)CC3)OC2=O)s1 tested with Cytochrome P450 3A4 (Homo sapiens).
*A* 6 µM

*Q* Fill in INH for O=C1O[C@]2(CC[C@H](CNc3ccc(-c4ncccc4F)cn3)CC2)CN1c1cccnn1 tested with Cytochrome P450 3A4 (Homo sapiens).
*A* > 10 µM

*Q* Fill in INH for O=C1O[C@]2(CC[C@H](CNc3ccc(-c4cc(F)cc(F)c4)nn3)CC2)CN1c1cccnn1 tested with Cytochrome P450 3A4 (Homo sapiens).
*A* > 10 µM

New cases:
*Q* Fill in INH for O=C1O[C@]2(CC[C@H](CNc3cnc(-c4ccccc4F)cn3)CC2)CN1c1ccccn1 tested with Cytochrome P450 3A4 (Homo sapiens).
*A* > 10 µM

*Q* Fill in INH for FC(F)(F)c1ccc(Nc2nc(-c3ccccn3)cs2)cc1 tested with Cytochrome P450 3A4 (Homo sapiens).
*A* < 0.1 µM

*Q* Fill in INH for O=C1O[C@]2(CC[C@H](CNc3ccc(-c4ccccc4F)nc3)CC2)CN1c1ccccn1 tested with Cytochrome P450 3A4 (Homo sapiens).
*A* 9 µM

###

Biological target: Cytochrome P450 1A2 (Homo sapiens)
Sequence (P05177 whole entry): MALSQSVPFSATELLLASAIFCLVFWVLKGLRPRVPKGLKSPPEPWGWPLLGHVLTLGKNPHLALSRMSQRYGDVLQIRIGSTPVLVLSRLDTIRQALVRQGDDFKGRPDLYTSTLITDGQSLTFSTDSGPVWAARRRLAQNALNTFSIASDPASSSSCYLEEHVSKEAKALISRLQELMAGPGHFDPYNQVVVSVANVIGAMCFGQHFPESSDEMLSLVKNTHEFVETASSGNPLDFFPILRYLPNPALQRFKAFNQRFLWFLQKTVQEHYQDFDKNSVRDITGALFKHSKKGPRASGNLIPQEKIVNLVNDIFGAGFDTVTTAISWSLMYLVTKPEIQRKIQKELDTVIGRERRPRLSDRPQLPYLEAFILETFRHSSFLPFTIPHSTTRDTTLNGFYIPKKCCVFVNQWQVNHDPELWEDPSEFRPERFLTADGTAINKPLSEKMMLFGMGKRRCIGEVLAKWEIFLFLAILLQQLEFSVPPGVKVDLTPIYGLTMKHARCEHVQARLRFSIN
Test: Inhibition of CYP1A2
Assay type: ADME
Below, each entry is listed alongside its reported INH.

# count of solved cases: 4
*Q* Entry O=C1O[C@]2(CC[C@H](CNc3ccc(-c4nccs4)cn3)CC2)CN1c1ccccn1 needs its INH filled in; supply it.
*A* > 10 µM

*Q* Entry FC(F)(F)c1ccc(Nc2nc(-c3ccccn3)cs2)cc1 needs its INH filled in; supply it.
*A* < 0.1 µM

*Q* Entry Cc1ccccc1-c1ccc(NC[C@H]2CC[C@]3(CC2)CN(c2cccnn2)C(=O)O3)nn1 needs its INH filled in; supply it.
*A* > 10 µM

*Q* Entry Cc1ncccc1N1C[C@]2(CC[C@@H](CNc3cnn(-c4ccccc4F)c3)CC2)OC1=O needs its INH filled in; supply it.
*A* > 10 µM

Then this compound:
*Q* Entry O=C1O[C@]2(CC[C@H](CNc3cnc(-c4ccccc4F)cn3)CC2)CN1c1ccccn1 needs its INH filled in; supply it.
*A* > 10 µM

###

Test: Oral bioavailability in rat at 1 mg/kg
Format: ADME, organism-based
Settings: in vivo
value-type: bioavailability (%)

# count of solved cases: 3
*Q* Entry O=C1O[C@]2(CC[C@H](CNc3ccc(-c4ccccc4F)nn3)CC2)CN1c1cccnn1 needs its bioavailability filled in; supply it.
*A* 90

*Q* Entry O=C1O[C@]2(CC[C@H](CNc3ccc(-c4cc(F)cc(F)c4)nn3)CC2)CN1c1cccnn1 needs its bioavailability filled in; supply it.
*A* 75

*Q* Entry O=C1O[C@]2(CC[C@H](CNc3cnn(-c4ccccc4F)c3)CC2)CN1c1cccnn1 needs its bioavailability filled in; supply it.
*A* 52

[P] O=C1O[C@]2(CC[C@H](CNc3ccc(-c4ncccc4F)cn3)CC2)CN1c1cccnn1
[Q] O=C1O[C@]2(CC[C@H](CNc3nc(-c4ccccn4)cs3)CC2)CN1c1ccccn1
*Q* Input pair: P , Q . Output: entry with lower bioavailability. Pick one; state its label.
*A* Q

Taken from ChEMBL document CHEMBL1255172.
